# Test system: K562 CRISPRi cells
# protocol: Perturb-seq pooled growth measurement (sgRNA counts, growth phenotype γ, relative activity)
# Assay type: cell-based, human
# measurement.context: sequencing read counts; T0 = day two after transduction
Kindly state Perturb-seq pooled growth sgRNA counts, T0 for each of the entries shown.
One number for each entry.

Record excerpt, results attached:
substance	test.value
ATP5E_−_57607036.23-P1P2_00: sgRNA targeting ATP5E, GGTGTCCAGGGGCACTCTGT, SEQ ID NO: 151 (listed as DNA, chemistry not fully specified)	8197
ATP5E_−_57607036.23-P1P2_01: sgRNA targeting ATP5E, GGTGTCCTGGGGCACTCTGT, SEQ ID NO: 152 (listed as DNA, chemistry not fully specified)	7774

Asked: Note down Perturb-seq pooled growth sgRNA counts, T0 recorded for GINS1_−_25388381.23-P1P2_14: sgRNA targeting GINS1, GGACTAGAACGAAAGGAGCG, SEQ ID NO: 97 (listed as DNA, chemistry not fully specified)
Given back: 6443

----------
Kindly state Perturb-seq pooled growth sgRNA counts, d5 for each of the entries shown.
# Test system: K562 CRISPRi cells
# protocol: Perturb-seq pooled growth measurement (sgRNA counts, growth phenotype γ, relative activity)
# Assay type: cell-based, human
# measurement.context: sequencing read counts; 5 days of growth (day seven after transduction)
Answers are plain numbers.

Record excerpt, results attached:
substance	test.value
DUT_+_48624411.23-P1P2_07: sgRNA targeting DUT, GCGAGCGAGGAGCCCACCGG, SEQ ID NO: 113 (listed as DNA, chemistry not fully specified)	1509
POLR1D_+_28196016.23-P1_08: sgRNA targeting POLR1D, GGGAAGCAGGGACCGACCGA, SEQ ID NO: 74 (listed as DNA, chemistry not fully specified)	4205

Then there is this substance:
Asked: Specify the recorded Perturb-seq pooled growth sgRNA counts, d5 for DUT_+_48624411.23-P1P2_08: sgRNA targeting DUT, GCGAGCGAGGAGGCCACCGG, SEQ ID NO: 112 (listed as DNA, chemistry not fully specified) , system: K562 CRISPRi cells.
Given back: 4351
